Listing: IC50 of selected compounds
tested.on: human NLRP3 (Homo sapiens, UniProt Q96P20)
Sequence (Q96P20 whole entry): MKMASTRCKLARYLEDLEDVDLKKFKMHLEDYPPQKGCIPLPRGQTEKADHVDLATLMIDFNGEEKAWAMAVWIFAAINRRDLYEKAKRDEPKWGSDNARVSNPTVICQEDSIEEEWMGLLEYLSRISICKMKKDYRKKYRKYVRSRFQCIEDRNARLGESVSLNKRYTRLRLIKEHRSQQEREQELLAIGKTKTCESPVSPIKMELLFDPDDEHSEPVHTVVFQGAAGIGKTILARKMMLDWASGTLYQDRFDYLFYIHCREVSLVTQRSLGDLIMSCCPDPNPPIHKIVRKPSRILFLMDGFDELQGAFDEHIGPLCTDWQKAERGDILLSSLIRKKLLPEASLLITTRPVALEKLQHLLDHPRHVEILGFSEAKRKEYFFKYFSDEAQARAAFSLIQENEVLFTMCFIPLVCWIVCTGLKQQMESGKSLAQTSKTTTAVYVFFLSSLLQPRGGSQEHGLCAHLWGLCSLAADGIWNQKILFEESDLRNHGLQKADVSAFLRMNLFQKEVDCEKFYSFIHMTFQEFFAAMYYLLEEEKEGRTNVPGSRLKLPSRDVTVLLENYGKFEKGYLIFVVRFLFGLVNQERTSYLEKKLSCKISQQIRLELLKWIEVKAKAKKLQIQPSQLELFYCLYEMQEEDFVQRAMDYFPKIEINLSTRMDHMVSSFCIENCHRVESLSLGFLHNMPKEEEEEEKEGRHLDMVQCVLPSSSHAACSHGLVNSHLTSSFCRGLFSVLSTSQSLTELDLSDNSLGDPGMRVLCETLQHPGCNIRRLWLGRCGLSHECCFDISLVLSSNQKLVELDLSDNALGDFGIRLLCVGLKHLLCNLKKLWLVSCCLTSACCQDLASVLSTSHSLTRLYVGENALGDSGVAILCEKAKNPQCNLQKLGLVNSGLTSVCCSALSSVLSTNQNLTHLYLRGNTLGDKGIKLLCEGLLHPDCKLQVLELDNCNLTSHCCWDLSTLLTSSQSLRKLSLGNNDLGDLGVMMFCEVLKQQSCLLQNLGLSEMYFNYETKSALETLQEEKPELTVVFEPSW
experiment.description: Scintillation Proximity (SPA) NLRP3 Assay, displacement of 3H-MCC950
Assay type: binding
measurement.setup: Table B, activity class; displacement of 3H-MCC950 from human NLRP3

Here are 2 compounds together with their reported answers.
C[C@H]1C[C@@H](NC(=O)N(C)c2ccc(OC(F)(F)F)c(F)c2)[C@@H]2CC[C@H]1N2c1nnn[nH]1 (single isomer, unassigned) [51C*] ... > 100 µM
C[C@H]1C[C@H](NC(=O)N(C)c2ccc(Cl)c(F)c2)[C@@H]2CC[C@H]1N2c1nnn[nH]1 (single isomer, unassigned) [50D*] ... 10 to 50 µM

Proceeding to the next compound to report its IC50.
Data request: Look up IC50: C[C@@H]1CCN(c2nnn[nH]2)C[C@H](NC(=O)N(C)c2ccc(OC(F)F)c(F)c2F)C1 (single isomer, unassigned) [40A*]
Data returned: < 1 µM

###

tested.on: human NLRP3 (Homo sapiens)
experiment.description: Scintillation Proximity (SPA) NLRP3 Assay, displacement of 3H-MCC950
Type: binding
measurement.setup: Table B, activity class; displacement of 3H-MCC950 from human NLRP3
pIC50: −log10 of the molar value.
outcome.measure: pIC50

C[C@H]1CCN(c2nnn[nH]2)C[C@@H](NC(=O)N(C)c2ccc(Cl)cc2F)C1 (single isomer, unassigned) ... 5.00 to 6.00
C[C@H]1CCN(c2nnn[nH]2)C[C@@H](NC(=O)N(C)c2cnc(C(F)(F)F)cn2)C1 (single isomer, unassigned) [32D*] ... 4.00 to 4.30
C[C@@H]1C[C@H](NC(=O)N(C)c2ccc(OC(F)(F)F)c(F)c2)[C@H]2CC[C@@H]1N2c1nnn[nH]1 (single isomer, unassigned) [51B*] ... 4.00 to 4.30
C[C@H]1C[C@@H](NC(=O)N(C)c2ccc(OC(F)F)c(F)c2)[C@@H]2CC[C@H]1N2c1nnn[nH]1 (single isomer, unassigned) [52C*] ... < 4.00
C[C@@H]1CCN(c2nnn[nH]2)C[C@H](NC(=O)N(C)c2ccc(C(F)(F)F)c(F)c2F)C1 (single isomer, unassigned) [21A*] ... > 6.00

Data request: Checklist item: pIC50 tested on human NLRP3 (Homo sapiens), entry C[C@@H]1CCN(c2nnn[nH]2)C[C@H](NC(=O)N(C)c2ccc(OC(F)(F)F)cc2F)C1 (single isomer, unassigned) [24A*] , value?
Data returned: > 6.00

Data request: Quick one: C[C@@H]1C[C@H](NC(=O)N(C)c2c(F)cc(OC(F)(F)F)cc2F)[C@H]2CC[C@@H]1N2c1nnn[nH]1 (single isomer, unassigned) [62B*]
Data returned: < 4.00

Data request: Quick one: C[C@@H]1CCN(c2nnn[nH]2)C[C@@H](NC(=O)N(C)c2ccc(OC(F)(F)F)cc2F)C1 (single isomer, unassigned) [24B*]
Data returned: 5.00 to 6.00

Data request: Quick one: C[C@H]1CCN(c2nnn[nH]2)C[C@@H](NC(=O)N(C)c2ccc(OC(F)(F)F)c(OC(F)F)c2)C1 (single isomer, unassigned) [25D*]
Data returned: 4.30 to 5.00

Data request: Quick one: C[C@H]1CCN(c2nnn[nH]2)C[C@H](NC(=O)N(C)c2ccc(OC(F)F)cc2F)C1 (single isomer, unassigned) [17C*]
Data returned: 5.00 to 6.00

Data request: Quick one: C[C@@H]1CCN(c2nnn[nH]2)C[C@@H](NC(=O)N(C)c2c(F)cc(OC(F)F)cc2F)C1 (single isomer, unassigned) [19B*]
Data returned: 5.00 to 6.00

Data request: Quick one: C[C@@H]1CCN(c2nnn[nH]2)C[C@@H](NC(=O)N(C)c2ccc(OC(F)F)cc2F)C1 (single isomer, unassigned) [17B*]
Data returned: 5.00 to 6.00

Data request: Quick one: CC1CCN(c2nnn[nH]2)CC(NC(=O)N(C)c2cnc(C(F)(F)F)nc2)C1 (single isomer, unassigned) [31C*]
Data returned: 4.30 to 5.00

###

Listing: IC50 of selected molecules
tested.on: UniProtKB Q96P20
experiment.description: Scintillation Proximity (SPA) NLRP3 Assay, displacement of 3H-MCC950
Format: binding
measurement.setup: Table B, activity class; displacement of 3H-MCC950 from human NLRP3

C[C@@H]1C[C@@H](NC(=O)N(C)c2ccc(C(F)F)cc2F)[C@H]2CC[C@@H]1N2c1nnn[nH]1 (single isomer, unassigned) [55A*] ... < 1000 nM

Data request: Look up IC50: C[C@@H]1C[C@@H](NC(=O)N(C)c2ccc(C(F)(F)F)cc2F)[C@H]2CC[C@@H]1N2c1nnn[nH]1 (single isomer, unassigned) [48A*]
Data returned: < 1000 nM

Data request: Quick one: C[C@@H]1CCN(c2nnn[nH]2)C[C@H](NC(=O)N(C)c2ccc(C3CC3)c(F)c2)C1 (single isomer, unassigned) [23A*]
Data returned: < 1000 nM

Data request: Quick one: C[C@@H]1CCN(c2nnn[nH]2)C[C@@H](NC(=O)N(C)c2ccc(OC(F)(F)F)c(F)c2F)C1 (single isomer, unassigned) [26B*]
Data returned: 1000 to 10000 nM

Data request: Quick one: C[C@@H]1CCN(c2nnn[nH]2)C[C@@H](NC(=O)N(C)c2c(F)cc(C3CC3)cc2F)C1 (single isomer, unassigned) [20B*]
Data returned: 1000 to 10000 nM

Data request: Quick one: C[C@@H]1C[C@@H](NC(=O)N(C)c2ccc(OC(F)F)c(OC(F)F)c2)[C@H]2CC[C@@H]1N2c1nnn[nH]1 (single isomer, unassigned) [64A*]
Data returned: < 1000 nM

###

Listing: IC50 of selected compounds
tested.on: UniProt Q96P20
experiment.description: Human PBMC NLRP3 Assay (LPS priming, ATP stimulation, cytokine measurement)
Assay type: cell-based
Set-up: host or cells: human PBMCs (A2); human whole blood from healthy volunteers (A3)
measurement.setup: Table B, activity class; human PBMC, LPS + ATP

CN(C(=O)N[C@@H]1CCCN(c2nnn[nH]2)C1)c1ccc(Cl)cc1 [Compound 2A] ... 0.1 to 0.5 µM
C[C@@H]1CCN(c2nnn[nH]2)C[C@H](NC(=O)N(C)c2ccc(C3CC3)cc2)C1 (single isomer, unassigned) [8A*] ... < 0.01 µM
C[C@@H]1C[C@@H](NC(=O)N(C)c2ccc(OC(F)F)c(OC(F)F)c2)[C@H]2CC[C@@H]1N2c1nnn[nH]1 (single isomer, unassigned) [64A*] ... 0.01 to 0.1 µM

Proceeding to the next compound to report its IC50.
Data request: Look up IC50: C[C@@H]1CCN(c2nnn[nH]2)C[C@H](NC(=O)N(C)c2ccc(C(F)(F)F)c(F)c2F)C1 (single isomer, unassigned) [21A*]
Data returned: 0.01 to 0.1 µM

###

Listing: IC50 of selected compounds
tested.on: human NLRP3 (Homo sapiens)
experiment.description: Scintillation Proximity (SPA) NLRP3 Assay, displacement of 3H-MCC950
Type: binding
measurement.setup: Table B, activity class; displacement of 3H-MCC950 from human NLRP3

C[C@H]1C[C@H](NC(=O)N(C)c2c(F)cc(C3CC3)cc2F)[C@@H]2CC[C@H]1N2c1nnn[nH]1 (single isomer, unassigned) [60D*] ... 1 to 10 µM
C[C@H]1CCN(c2nnn[nH]2)C[C@@H](NC(=O)Nc2ccc(Cl)cc2F)C1 (single isomer, unassigned) [27D*] ... > 100 µM
C[C@H]1C[C@@H](NC(=O)N(C)c2ccc(C(F)F)c(F)c2)[C@@H]2CC[C@H]1N2c1nnn[nH]1 (single isomer, unassigned) [53C*] ... > 100 µM
C[C@@H]1CCN(c2nnn[nH]2)C[C@@H](NC(=O)N(C)c2ncc(C(F)(F)F)cn2)C1 (single isomer, unassigned) [30B*] ... > 100 µM

Data request: Look up IC50: C[C@H]1CCN(c2nnn[nH]2)C[C@@H](NC(=O)N(C)c2ccc(C(F)(F)F)cc2F)C1 (single isomer, unassigned) [13D*]
Data returned: 1 to 10 µM

Data request: Quick one: C[C@H]1CCN(c2nnn[nH]2)C[C@@H](NC(=O)N(C)c2c(F)cc(C3CC3)cc2F)C1 (single isomer, unassigned) [20D*]
Data returned: 1 to 10 µM

Data request: Quick one: C[C@H]1CCN(c2nnn[nH]2)C[C@H](NC(=O)N(C)c2ccc(C(F)F)c(F)c2)C1 (single isomer, unassigned) [22C*]
Data returned: 10 to 50 µM

Data request: Quick one: C[C@H]1CCN(c2nnn[nH]2)C[C@H](NC(=O)N(CC2CC2)c2ccc(OC(F)(F)F)cc2)C1 (single isomer, unassigned) [44C*]
Data returned: 10 to 50 µM

Data request: Quick one: C[C@H]1C[C@@H](NC(=O)N(C)c2ccc(Cl)c(F)c2)[C@@H]2CC[C@H]1N2c1nnn[nH]1 (single isomer, unassigned) [50C*]
Data returned: > 100 µM

Data request: Quick one: C[C@H]1C[C@@H](NC(=O)N(C)c2ccc(OC(F)F)c(OC(F)F)c2)[C@@H]2CC[C@H]1N2c1nnn[nH]1 (single isomer, unassigned) [64C*]
Data returned: > 100 µM

Data request: Quick one: C[C@@H]1CCN(c2nnn[nH]2)C[C@@H](NC(=O)N(C)c2ccc(C(F)F)c(F)c2)C1 (single isomer, unassigned) [22B*]
Data returned: 1 to 10 µM

Data request: Quick one: C[C@@H]1CCN(c2nnn[nH]2)C[C@H](NC(=O)N(C)c2ccc(OC(F)(F)F)cc2)C1 (single isomer, unassigned) [10A*]
Data returned: < 1 µM

Data request: Quick one: C[C@H]1CCN(c2nnn[nH]2)C[C@@H](NC(=O)N(C)c2ccc(OC(F)(F)F)cc2F)C1 (single isomer, unassigned) [24D*]
Data returned: 1 to 10 µM

Data request: Quick one: C[C@@H]1CCN(c2nnn[nH]2)C[C@@H](NC(=O)N(C)c2ccc(Cl)c(F)c2)C1 (single isomer, unassigned) [12B*]
Data returned: 1 to 10 µM

Data request: Quick one: C[C@H]1C[C@@H](NC(=O)N(C)c2ccc(C3CC3)cc2)[C@@H]2CC[C@H]1N2c1nnn[nH]1 (single isomer, unassigned) [46C*]
Data returned: 10 to 50 µM

Data request: Quick one: C[C@H]1CCN(c2nnn[nH]2)C[C@H](NC(=O)Nc2ccc(Cl)cc2F)C1 (single isomer, unassigned) [27C*]
Data returned: 10 to 50 µM

Data request: Quick one: C[C@@H]1CCN(c2nnn[nH]2)C[C@H](NC(=O)N(C)c2ccc(C(F)F)cc2F)C1 (single isomer, unassigned) [18A*]
Data returned: < 1 µM

Data request: Quick one: C[C@H]1CCN(c2nnn[nH]2)C[C@H](NC(=O)N(C)c2ccc(Cl)cn2)C1 (single isomer, unassigned) [28C*]
Data returned: 50 to 100 µM

Data request: Quick one: C[C@H]1CCN(c2nnn[nH]2)C[C@@H](NC(=O)N(C)c2ccc(OC(F)F)c(F)c2F)C1 (single isomer, unassigned) [40D*]
Data returned: 1 to 10 µM

Data request: Quick one: C[C@H]1C[C@H](NC(=O)N(C)c2ccc(C(F)(F)F)cc2F)[C@@H]2CC[C@H]1N2c1nnn[nH]1 (single isomer, unassigned) [48D*]
Data returned: 10 to 50 µM

Data request: Quick one: C[C@@H]1CCN(c2nnn[nH]2)C[C@@H](NC(=O)N(C)c2cnc(C(F)(F)F)nc2)C1 (single isomer, unassigned) [31B*]
Data returned: 10 to 50 µM

Data request: Quick one: C[C@@H]1CCN(c2nnn[nH]2)C[C@H](NC(=O)Nc2ccc(Cl)cc2F)C1 (single isomer, unassigned) [27A*]
Data returned: 1 to 10 µM
